# ASSAY_TEXT: MMV: Gametocytes from P. falciparum reporter strain NF54-deltaPf47-5'hsp70-GFP::Luc were exposed to serial dilutions of compounds for 24 hours. Subsequently, compounds were washed out and gametocytes were fed to Anopheles stephensi mosquitoes. Three compounds were tested at six dilutions in one experimental run. All conditions were tested in duplicate in two different experimental runs. Each run included duplicate feeders for vehicle (0.1% DMSO) and positive (10 uM dihydroartemisinin) controls. Eight days post-feeding, oocyst densities were determined by assessment of luminescence signals in homogenized mosquitoes. Up to 24 mosquitoes were analysed per feeder. Luminescence data from individual mosquitoes were normalized against the average signals from the vehicle control feeds that were included in each run. IC50 values were determined by fitting a four-parameter logistic regression model using maximum likelihood optimization to find the best fit.
# Type: functional, Plasmodium falciparum
# REPORTED_CONDITIONS: read-out: IC50
pIC50: −log10 of the molar value.
READOUT_TYPE: pIC50

MOLECULE	READOUT_TYPE	EXPERIMENTAL_RESULT
Clc1cc(Br)ccc1-c1ccc(CNCC2CCNCC2)o1	pIC50	7.13
CCOC(=O)c1cn(CC)c2cc(N3CCCCC3)c(F)cc2c1=O	pIC50	7.02
CCOC(=O)C1=C(C)N=c2sc(=Cc3cc(Cl)ccc3O)c(=O)n2C1c1ccc(OC)cc1 (stereo not given)	pIC50	5.49
CC(C)(C)c1ccc2c(c1)CN(Cc1ccc(Cl)cc1)CO2	pIC50	6.23
COc1ccc(C2c3ccc4ccccc4c3Oc3ncn(CCCN(C)C)c(=N)c32)cc1 (stereo not given)	pIC50	7.23
CCOC(=O)c1cnc2ccc(CC)cc2c1O	pIC50	6.96
Cc1ccc(-c2cc3c(nn2)-c2ccccc2C3=O)cc1	pIC50	5.90
CCN(CC)CCn1c(=N)n(CC(O)c2ccc(Cl)c(Cl)c2)c2ccccc21 (stereo not given)	pIC50	5.78
CC1=C(CC(=O)c2cccc([N+](=O)[O-])c2)C(=O)c2ccccc2C1=O	pIC50	5.85
CN(C)c1ccc(C(O)(c2ccc(N(C)C)cc2)c2ccc(N(C)C)cc2)cc1 [METHYLROSANILINE]	pIC50	7.41

---

# IC50 per entry
# ASSAY_TEXT: MMV: Gametocytes from P. falciparum reporter strain NF54-deltaPf47-5'hsp70-GFP::Luc were exposed to serial dilutions of compounds for 24 hours. Subsequently, compounds were washed out and gametocytes were fed to Anopheles stephensi mosquitoes. Three compounds were tested at six dilutions in one experimental run. All conditions were tested in duplicate in two different experimental runs. Each run included duplicate feeders for vehicle (0.1% DMSO) and positive (10 uM dihydroartemisinin) controls. Eight days post-feeding, oocyst densities were determined by assessment of luminescence signals in homogenized mosquitoes. Up to 24 mosquitoes were analysed per feeder. Luminescence data from individual mosquitoes were normalized against the average signals from the vehicle control feeds that were included in each run. IC50 values were determined by fitting a four-parameter logistic regression model using maximum likelihood optimization to find the best fit.
# Type: functional, Plasmodium falciparum
# REPORTED_CONDITIONS: read-out: IC50

COMPOUND	IC50
CN(C)CCCNc1c2ccccc2nc2ccccc12	1170 nM
COC(=O)c1ccc(C2C3=C(O)CC(c4ccc(F)cc4)CC3=Nc3ccccc3N2C(=O)c2ccccc2)cc1 (stereo unspecified)	8510 nM
O=C(NC1CCN(Cc2ccccc2)CC1)c1cc(C(=O)NC2CCN(Cc3ccccc3)CC2)cc(C(=O)NC2CCN(Cc3ccccc3)CC2)c1	1170 nM
COc1ccc(-c2c(C)nn3c(N)c(C#N)cnc23)cc1OC	3630 nM
OC1CCCCC1C1(NC(=S)Nc2ccccc2)CCCCC1 (stereo unspecified)	1740 nM
Cc1sc2ncnc(Sc3nc4ccccc4[nH]3)c2c1C	1290 nM

Taken from ChEMBL document CHEMBL3430850.
